For each entry below, report its inhibition value.
# assay explanation: Leishmania major promastigote growth inhibition, primary screen (AID 1063);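 note: promastigotes grown with compound for 44 hours at 28 °C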
# measurement context: Leishmania major promastigotes, resazurin fluorescence viability; at 10 µM; hits give high values
In all, about 200,000 compounds went through this assay and about 18,000 (9%) were called active. This is one part of a sample in which actives are shown more often than they occur.
Numbers only, in %.

> print(dat)
                                   molecule  numeric.result
1  COC(=O)C1=C(C)N(C)C(C)=C(C(=O)OC)C1c1cccc(Br)c1            52.8
2  CCNC(=O)CC1C(=O)N(c2ccc(OC)cc2)C(=S)N1CCc1ccncc1 (stereo not given)           -4.31
3            CCCOc1ccc(C(=O)NCCc2ccccc2)cc1            7.66

Quick one: give me inhibition for each item below, same order please.
1. Oc1c(CN2CCN(c3ccc(F)cc3)CC2)cc(Cl)c2cccnc12
2. O=C(CN1CCCCCC1)N1c2ccccc2Sc2ccc(C(F)(F)F)cc21
3. S=C(Nc1ccc(Br)cc1Cl)N1CCC2(CC1)OCCO2

stdout:
100
46
-4.82

Quick one: give me inhibition for each item below, same order please.
1. Cc1cc(-c2nnc(CCC(=O)NC(c3ccccc3)c3ccccc3)o2)no1
2. C/C(=N\NC(=O)COc1c(C)cccc1C)c1cccs1

stdout:
1. 5.43
2. 2.87

Quick one: give me inhibition for each item below, same order please.
1. O=C(CC1Nc2ccccc2NC1=O)Nc1ccccc1NC(=O)CC1Nc2ccccc2NC1=O (stereo not given)
2. Cc1ccc(NC(=O)c2oc3ccccc3c2C)c([N+](=O)[O-])c1
3. O=C(CSc1ccc(-c2cccs2)nn1)Nc1ccccc1F
4. Nc1c(C(=O)O)cnn1-c1ccccc1
5. Cc1ccc(NC(=S)NC(=O)c2ccc(-c3ccccc3)cc2)c(C)c1
6. Cc1c(Cl)c([N+](=O)[O-])nn1CCCC(=O)Nc1cc(Cl)ccc1Cl

stdout:
1. -4.12
2. -2.37
3. 10.6
4. -2.24
5. -4.31
6. 0.47

stdin: So what does the record say about inhibition for CCC(C)(C)c1ccc(OCC(=O)N(C)C)c(C(C)(C)CC)c1 ?
stdout: 18.1

* * *

# assay explanation: Leishmania major promastigote growth inhibition, primary screen (AID 1063);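 note: promastigotes grown with compound for 44 hours at 28 °C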
# measurement context: Leishmania major promastigotes, resazurin fluorescence viability; at 10 µM
Out of some 200,000 compounds screened, about 18,000 (9%) were called active. Cut-off read from the data, not from the text of the source: active = inhibition above about 50%; inactive = the rest. The sample as a whole holds a higher share of actives than the screen did.
Returns: one label drawn from label 1 for active, label 0 for inactive

> print(dat)
                                   molecule  class.name
1  O=C(c1cccc(F)c1)N1CCN(c2ccc([N+](=O)[O-])c3cccnc23)CC1     label 0
2  CC(Sc1nnnn1C)C(=O)NC(=O)NC1CCCCC1 (stereo not drawn)     label 0
3  Cn1c(SCC(=O)OC2CCCCC2)nnc1-c1ccc(S(=O)(=O)N2CCCC2)cc1     label 0
4      O=C(COc1ccc(-c2ccccc2)cc1)NN=C1CCCC1     label 0
5  CC1Cc2ccccc2N1C(=O)CSc1nnc(-c2ccc(S(=O)(=O)N3CCCC3)cc2)n1C (stereo not drawn)     label 1

stdin: For this molecule, state the assay outcome: CC(CNc1ccc([N+](=O)[O-])c2cccnc12)Nc1c([N+](=O)[O-])cc(C(F)(F)F)cc1[N+](=O)[O-] (stereo not drawn)
stdout: label 1

stdin: For this molecule, state the assay outcome: COc1ccc(-c2cc3nc(C)c(CCC(=O)NC(C)CCc4ccco4)c(C)n3n2)c(OC)c1 (stereo not drawn)
stdout: label 1

stdin: For this molecule, state the assay outcome: Cc1cccc(-n2c(N)cc(=O)nc2SC(C)C(=O)NC2CCCCC2)c1 (stereo not drawn)
stdout: label 1

stdin: For this molecule, state the assay outcome: O=C(CSc1ccc(C(F)(F)F)cc1[N+](=O)[O-])NCCOc1ccccc1
stdout: label 0

stdin: For this molecule, state the assay outcome: CSc1ncccc1C(=O)N1CCCC(CCC(=O)NCc2ccccc2F)C1 (stereo not drawn)
stdout: label 0

stdin: For this molecule, state the assay outcome: C/C(CC(=O)Nc1ccc(C)cc1C)=N\NC(=O)C(C)C
stdout: label 0

stdin: For this molecule, state the assay outcome: Cc1nc2c(-c3ccc(F)cc3)c(C)nn2c(C)c1CCC(=O)NCc1ccco1
stdout: label 0

stdin: For this molecule, state the assay outcome: CC(=O)c1cc(C#N)c(N2CC(C)OC(C)C2)nc1C (stereo not drawn)
stdout: label 0
